Entry source: the nanobody polyreactivity screen of Harvey et al. (2022)

assay: yeast display, Sf9 membrane polyspecificity reagent, FACS + sequencing; frameworks hold sequencing errors
readout.label: polyreactivity (PSR sort gate)

Worked set:
QVQLVESGGGLVQAGGSLRLSCAASGGTIRVYAMRWYRQAPGKERELVAAITGRGGSTYYADSVKGRFTISRDNAKNTVYLQMNSLKPEDTAVYYCAKDPVTTYYKYDYWGQGTQVTVSS
low polyreactivity
QVQLVESGGGLVQAGGRLRLSCAASGGTFHKYAMGWYRQAPGKERELVAGISRRTGTTYYADSVKGRFTISRDNAKNTVYLQMNSLKPEDTAVYYCATDWGRYSRLSKADPSDYWGQGTHVTVSS
high polyreactivity
QVQLVESGGGLVQAGVSLRLSCAASGRLFYRYAMGWYRQAPGKERELVAGISRGGSTNYADSVKGRFTISRDNAKNTVYLLMKSLKPEDSAVYYCAADAKRTLSYEFGYWGQGTQVTVSS
high polyreactivity
QVQLVESGGGLVQAGGSLRLTCAASGSTFFYYAMVWYIHAPGKERELVAAITVRGTSTYYADSVKGRFTISRDIAKNTVYLQMNSLKPEDTAVYYCNTLQPYLYDYWGQGTQVTVSS
high polyreactivity

Let us examine a further case.
For this sequence ( QVQLVESGGGLVQAGGSLRLSCAASGRTFWSYAMGWYRPAPGKERELVAAINSSGDSTNYADSVKGRFTISRDNAKNTVYLQMNWLKPEDTAVYYCAADGGLLAGSDATVRMDYWGQGTQVTVSS ), measured polyreactivity (PSR sort gate) is low polyreactivity

====

assay: yeast display, Sf9 membrane polyspecificity reagent, FACS + sequencing; frameworks hold sequencing errors
readout.label: polyreactivity (PSR sort gate)

Worked set:
QVQLVESGGGLVQAGGTLRLSCAASGITFKRYAMGWYRLAPGKERELVATISRSGGSPYADSVKGRFTISRDNAMNTVYLQMNSLKPEDSAVYYCNAVSQSSEYDYWGEGTQVTVSS
high polyreactivity
QVQLVESGGGLVQAGGSLRLSCAASGSIFHVNAMGWYRQAPGKERELVAGISDGGSTYYADSVKGRFTISRDNAKNTVYLQMNSLKPEDTAVYYCSADDGYTYYWAGYDSWGQGTQVTVSS
low polyreactivity
QVHLVESGGGLVQAGGSLRLSCAASGRIFPAYVMGWYRQAPGKERELVAGITSASSTYYADSVKGRFTISRDNAKNTVYLQMNSLKPEDTAVYYCAAVGYSVRQRYDYWGQGTQVTVSS
high polyreactivity
QVQLVESGGGLVQAGGSLRLSCASSGIIFYPNAMGWYRQAPAKERELVAAITSDGSTYYADSVKGRFTISRDNAMNTVYLQMNRLKPEDTAVYYCAAWEDYGYDYWGQGTQVTVSS
low polyreactivity

For this sequence ( QVQLVESGGGLVQAGGSLRLSCAASGRIFSRKTMGWYRQAPGKEREFVAAISQSGGRTYYADSVKGRFTISRDNAKNTVYLQMNSLKPEDTAVYYCNAQFARSSGFNYWGQGTQVTVSS ), measured polyreactivity (PSR sort gate) is high polyreactivity

====

assay: yeast display, Sf9 membrane polyspecificity reagent, FACS + sequencing; frameworks hold sequencing errors
readout.label: polyreactivity (PSR sort gate)

QVQLVESGGGLVQAGGSLRLSCAASGFTFQNNVMGWYRQAPGKERELVAAINSSGRTYYADSVKGRFTISRDNAKNTVYLQMNSLKPEDTAVFYCAASRRYRGVNRPGDYWGQGTQVTVSS
high polyreactivity
QVQLVESGGGLVQAGGSLRLSCAASGSTIRYYAMGWYRQAPGKERQLVAYITTSGGTYYADSVKGRFTISRDNAKNTVYLQMHSLKPEDTAVYYCAARRQDYTYYRIYHFDYWGQGTQVTVSS
high polyreactivity

====

experiment: yeast display, Sf9 membrane polyspecificity reagent, FACS + sequencing; frameworks hold sequencing errors
readout.label: polyreactivity (PSR sort gate)

QVQRVESGGGLVQAGGSLRISCAASGLIFYRYAMGRYRQAPGKERELVAAISKRGTSTYYADSVKGRFTISRDNAKNTVYLQMNSLKPEDTAVYYCAADVQEEYDYWGLGTQVTVSS
high polyreactivity
QVQLVESGGGLVQAGGSLRLSCAASGFTFDGYAMGSYRQAPGKERELVAAISDSGDSTYYADSVKGRFTISRDNAKNTVYLQMNSLKPEDTAVYYCAAPSVGYYDPTDFDYWGQGTQVTVSS
low polyreactivity
QVQLVESGGALVQAGGSLRLSCAASGIILLRYAMGWYRQAPGKERELVAAISYSGGSTYYADSVKGRFTISRDNAKNTVYLQMNSLKPEDTAVYYCNTVGPRRYSYDYWGQGTQVTVSS
high polyreactivity
QVQLVESGGGLVQAGGSLRLSCAASGSIFIFNAMVWYRQAPGKEREFVARIRRDSSTYYADSVKGRFTISRDNAKNTVYLQMNSLKPEDTAVYYCAAKRVYRRVELNSWGQGTQVTVSS
low polyreactivity

For this sequence ( QVQLVESGGGLVQAGGSLRLSCAASGRTFATYAMGWYRQAPGKERELVAAISSGGSTYYADSVKGRFTISRDNAKNTVYLQMNSLKPEDTAVYYCAVYVDYYGYGYWGQGTQVTVSS ), measured polyreactivity (PSR sort gate) is high polyreactivity

====

assay: yeast display, Sf9 membrane polyspecificity reagent, FACS + sequencing; frameworks hold sequencing errors
readout.label: polyreactivity (PSR sort gate)

Worked set:
QVQLVESGGGLVQAGGSLRLSCAASGSIYESYAMGWYRQAPGKERELVADITYDGGITYYADSVKGRFTISRDNAKNTVYLQMNSLKPEDTAVYYCATEYRYWLSDYSTYFPYDYWGQGSQVTVSS
low polyreactivity
QVQLVESGGGLVQAGGRLRLSCAASGSTFQFYAMGWYRQAPGKERELVAAITSSGSSTYYADSVKGRFTISRDNAKNTVYLQMNSLKPEDTAVYYCAARYYGYSVSYYYWGQGTQVTVSS
high polyreactivity
QVQLVESGGGLVQAGGSLRLSCSASGRILRQYAMGWSRQAPGKERELVAAITSSGGSTYYADSVKGRFTISRDNAKNTVYLQMNSLKPEDTAVYYCNARLRGAKYDYLGQGTQVTVSS
high polyreactivity
QVQLVESGGGIVQAGGSLRLSCAASGRTFRWNVMGCYRPAPGKERELVATISRRSGSTNYADSVKGRFTISRDNAKNTVYLQINSLKPEDTALYYCAVVIVRALVYSGDYWGQGTQVSVSS
low polyreactivity
QVQLVESGGGLVQAGGSLRLSCAASGFTYRRYAMGWYRQAPGKERELVAAITWSGGSTYYADSVKGRITISRDNAKNTVYLQMNSLKPEDTAVYYCNKAYSPLYFSYNYWGQGTQVTVSS
high polyreactivity
QVQLVESGGGLVQAGGSLRLSCAASGSIFRYYAMGWYRQAPGKERELVATISRDGGNTYYADSVKGRFTISRDNAKNTVYVQMNSLKPEDTAVYYCAKLGYRLSGYGYDYWGQGTQVTVSS
high polyreactivity
QVQLVESGGGLVQAGGSLRLSCAASGSTFRLYAMGWYRQAAGKERELVAAISYSGGSTYYADSVKGRFTISRDTAKNTVYLQMNSLKPEETAVYYCNAVRRHGGYYDYGYWGQGTQVTVSS
high polyreactivity
QVQLVESGGGLVQAGGSLRLSCAASGRTFRLYAMGWYRQAPGKERQLVAAIDGNGGSTYYADSVKGRFTISRDNAKNTVYLQMNSLKPEDTAVYYCAVSVSVYLDYRRDHQRGYDYWGQGTQVTVSS
low polyreactivity

Give me polyreactivity (PSR sort gate) for each of these sequences, listed below.
1. QVQLVESGGGLVQAGGSLRLSCAASGLTFYLYAMGWYRQAPGKERELVAAISRSGGSTYYADSVKGRFTISRDNAKNTVYVQMYSLKPEDTAVYYCAAVTYYPEIRKYYDWRQGTQVTVSS
2. QVQLVESGGGLVQAGGSLRLSCAASGSTFSEKAMGWYRQAPGKERELVAAISRRGGSTYYADSVKGRFTISRDNAKNTVYYQMNSLKPEDTAVYYCNVVNSGSFDYDYWGQGTPVTVSS
3. QVQLVESGGGLVQAGGSLRLSCADSGRTFTKYAMGRYRQAPGKERELVAAISRSGGSTYYADSVKGRFTISRVNAKNTVYLQMNSLKPEDTAVYYCAARRYRASSRGYGYWGQGTQVTVSS

[reply]
high polyreactivity
high polyreactivity
high polyreactivity

====

assay: yeast display, Sf9 membrane polyspecificity reagent, FACS + sequencing; frameworks hold sequencing errors
readout.label: polyreactivity (PSR sort gate)

Worked set:
KVQLVESGGGLVQAGGSLRLSCAHSGYIFGYYAMGCYRQAPGKERELVAAISSGGNTNYADSVKGRYTISRDNAKTTVYLQMNSLKPEDTAVNYCATRDRYKRIRYDYWGQGTQVTVSS
high polyreactivity
QVQLVESGGGLVQAGGSLRLSCAASGSIFAKYAMGWYRQAPGKERELVASITYSGGGTYYADSVKGRFTISLDNAKNTVYLQMNSLKPEDTAFYYCNAVKRVYIWASFRYVFWYDSWGQATQVTVSS
high polyreactivity
QVQLVESGGGLVQAGGSLRLSCAASGFTFYDKAMGWNRQAPGKERELVAAINCRSGSTYYADSVKGRFTISRDTAKNTVYLQMNSLKPEDTAVYYCASGLVFHYYAPKSYYLRYDYWGQGTQVTVSS
low polyreactivity
QVQLVESGGGLVQAGGSLRLSCAASGIIFVPNTMGWYRQAPGKERELVAAIRWSGGTTYYADSVKGRFTISRDNAKNTVYLQMNSLKPEDTAVYYCAARYGSRSSYLAYYYWGQGTQVTVSS
high polyreactivity
QVQLVESGGCLVQAGGSLRLSCAASGRTFYINTMGWYRQAPGKEREFVAAIRFSSDSTYYADSVKGRYTISRDNAKNTVYLQMNSLKPEDTAVYYCATRTYAQRYGYWGQGTQVTVSS
high polyreactivity

Give me polyreactivity (PSR sort gate) for each of these sequences, listed below.
1. QFQIVDSLEGLVQEAGTLRLSSAASGSIFYRYAKGGYRQAPRKERELVATITSSGGRTYYADSVKGRFTISRDNAKNTVYLQMNSLKPEDTAVNYCKPRDWGRTRGGGYPWLYRYDYWGQGTQVTVSS
2. QDQLVESGGGLVQAGGSLRLSCAASGFIFDQYAMGWYRQPPGKERELVAAITSGGDTNYADSVKGRFTISRDNAKNTVYLQMNSLKPEDTAVYYCNAAARGSSFDYWGQGTQVTVSS
3. QVQLVESGGGLVQAGGSLRLSCAASGRIFGYYAMGWYRQATGKERELVADITESGTSTYYADSVKGRFTISRDNAKNTVYLQMNSLKPEDTAVYYCAAGYWWRYALYVYWGQGTQVTVSS
4. QVQLVESGGGLVQAGGSLRLSCAASGRTFTYYGKGWYRQAPGKERELVAAITERGDSTYYADSVKGRFTISRDNAKNTVYLQMNSLKPEDTAVYYCAAAEHLTRPTSPTQDGDHWGQGTQVTVSS
5. QVQLVESGGGLVQAGGSLRLSCAASGSIFVNYAIGWYRQAPGKERELVAAISRSGGRTYYADSVKGRFTISRDNAMNSVYLQMNSLKPEDTAVYYCNVYPVLRTIEGDYWGQGTQVTVSS
6. QVQLVESGGGLVQAGGRLRISSAASGFIFYVNAKGWYRQAPGKERELVAAISWSGGSTYYADSVKGRFTISRDNAKNTVYLQMNSLKPEDPAFYYCAAGASPYEGYDNWGQGTQVTVSS

[reply]
1: low polyreactivity; 2: low polyreactivity; 3: low polyreactivity; 4: low polyreactivity; 5: high polyreactivity; 6: low polyreactivity
